# Test system: UACC-62 melanoma
# procedureDetails: NCI tumour cell line growth inhibition, 48 h
readout: GI50

- NC(Cc1c[nH]c2c(O)cccc12)C(=O)O (stereo not drawn): > 100 µM
- C=C(CN1CCN(c2ccc(Cl)cc2F)CC1)c1ccc(C(=O)Nc2ccccc2N)cc1: 2.42 µM
- Cn1c2ccccc2c2c(Nc3ccccc3)c3ccccc3nc21: 4.56 µM

====

Measured TGI values are reported for all entries that follow.
# System: A498 renal
# procedureDetails: NCI tumour cell line growth inhibition, 48 h
readout: TGI (µM)

* CCOC(=O)c1c2ccccc2n2c(N)c(C(N)=O)nnc12 | 71
* CO[C@H](C(=O)[C@@H](O)[C@@H](C)O)[C@@H]1Cc2cc3cc(O[C@H]4C[C@@H](O[C@H]5C[C@@H](O)[C@H](O)C(C)O5)[C@H](O)C(C)O4)c(C)c(O)c3c(O)c2C(=O)[C@H]1O[C@H]1C[C@@H](O[C@H]2C[C@@H](O[C@H]3C[C@](C)(O)C(=O)C(C)O3)[C@@H](O)C(C)O2)[C@H](O)C(C)O1 (some centres undefined) | 0.147
* Cc1cccc(/C=N/NC(=S)Nc2ccccc2)n1 | 67
* C=C(C)[C@@H]1CCC[C@]2(COS(=O)(=O)c3ccc(C)cc3)CC[C@]3(C)[C@@H](CC[C@@H]4[C@@]5(C)CCCNC(C)(C)[C@@H]5CC[C@]43C)[C@@H]12 | 3.14
* COc1cc(-c2nn(-c3ccc(NC(=O)c4ccc(Cl)c(C(F)(F)F)c4)cc3)cc2-c2ccncc2)ccc1Cl | 17.9
